TEST_SYSTEM: GLUD1 Glutamate dehydrogenase 1, mitochondrial (Homo sapiens, UniProt P00367)
Construct: isoTOP-ABPP experiments performed in cell lysates (in vitro); endogenous in cells; host or cells: MDA-MB-231 soluble lysate
Sequence (P00367 54-558): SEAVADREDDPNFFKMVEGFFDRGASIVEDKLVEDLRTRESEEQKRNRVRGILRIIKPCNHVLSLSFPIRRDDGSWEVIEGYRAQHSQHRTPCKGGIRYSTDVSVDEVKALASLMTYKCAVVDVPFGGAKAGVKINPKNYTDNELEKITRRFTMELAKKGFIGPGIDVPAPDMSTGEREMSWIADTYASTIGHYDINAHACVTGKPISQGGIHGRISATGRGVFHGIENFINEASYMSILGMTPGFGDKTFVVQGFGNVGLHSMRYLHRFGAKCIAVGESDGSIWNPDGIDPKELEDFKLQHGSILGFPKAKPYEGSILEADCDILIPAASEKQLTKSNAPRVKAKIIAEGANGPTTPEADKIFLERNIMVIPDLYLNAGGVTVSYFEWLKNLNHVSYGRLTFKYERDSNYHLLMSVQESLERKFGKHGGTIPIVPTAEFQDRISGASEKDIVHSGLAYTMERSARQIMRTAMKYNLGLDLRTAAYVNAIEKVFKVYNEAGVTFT
ASSAY_METHOD_TEXT: competitive isoTOP-ABPP
Assay type: binding
CONDITIONS: P00367_K480; 50 uM, 231 sol, in vitro
Consider the following molecules; for each one, report its R value (DMSO/fragment) for probe 1 labeling.

Quick one: R value (DMSO/fragment) for probe 1 labeling for "Cn1cc(CC(=O)Oc2c(F)c(F)c(F)c(F)c2F)c2ccccc21" ? 2.5

Quick one: R value (DMSO/fragment) for probe 1 labeling for "O=C(CCc1cn(-c2ccccc2)nc1-c1ccccc1)Oc1c(F)c(F)c(F)c(F)c1F" ? 1.0

Quick one: R value (DMSO/fragment) for probe 1 labeling for O=C(Oc1c(F)c(F)c(F)c(F)c1F)C(c1ccccc1)c1ccccc1 [fragment 20, Pentafluorophenyl 2,2-diphenylacetate] ? 1.4

Quick one: R value (DMSO/fragment) for probe 1 labeling for "O=C(Oc1c(F)c(F)c(F)c(F)c1F)c1cc(C(F)(F)F)cc(C(F)(F)F)c1" ? 1.2

Quick one: R value (DMSO/fragment) for probe 1 labeling for "COc1cc(CCC(=O)Oc2c(F)c(F)c(F)c(F)c2F)cc(OC)c1OC" ? 1.8

====

TEST_SYSTEM: NONO Non-POU domain-containing octamer-binding protein (Homo sapiens)
Construct: isoTOP-ABPP experiments performed in cell lysates (in vitro); endogenous in cells; host or cells: soluble proteome of human cancer cell lines (MDA-MB-231; Ramos and Jurkat also prepared)
Sequence (Q15233 whole entry, the tested form may be a part): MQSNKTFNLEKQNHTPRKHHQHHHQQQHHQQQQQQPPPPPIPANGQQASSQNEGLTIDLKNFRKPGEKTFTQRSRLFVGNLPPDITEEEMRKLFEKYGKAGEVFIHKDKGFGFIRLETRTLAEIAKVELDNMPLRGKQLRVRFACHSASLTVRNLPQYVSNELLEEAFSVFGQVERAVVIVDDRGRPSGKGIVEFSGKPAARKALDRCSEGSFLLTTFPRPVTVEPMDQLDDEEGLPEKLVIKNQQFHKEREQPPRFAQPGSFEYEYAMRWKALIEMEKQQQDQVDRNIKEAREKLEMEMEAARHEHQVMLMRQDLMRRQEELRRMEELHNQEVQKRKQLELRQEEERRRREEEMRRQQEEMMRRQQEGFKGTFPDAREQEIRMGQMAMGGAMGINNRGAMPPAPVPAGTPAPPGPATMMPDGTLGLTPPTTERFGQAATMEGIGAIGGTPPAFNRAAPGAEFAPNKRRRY
ASSAY_METHOD_TEXT: competitive isoTOP-ABPP
CONDITIONS: 50 uM, 231 sol, in vitro
READOUT_KIND: isoTOP-ABPP reactivity ratio at lysine Q15233_K467
Lab note: record the figure alone, no unit after it.

Quick one: isoTOP-ABPP reactivity ratio at lysine Q15233_K467 for Cn1cc(CC(=O)Oc2ccc([N+](=O)[O-])cc2[N+](=O)[O-])c2ccccc21 [fragment 32] ? 1.2

Quick one: isoTOP-ABPP reactivity ratio at lysine Q15233_K467 for COc1cc(CCC(=O)Oc2ccc([N+](=O)[O-])cc2[N+](=O)[O-])cc(OC)c1OC [fragment 33] ? 3.7

Quick one: isoTOP-ABPP reactivity ratio at lysine Q15233_K467 for O=C(Oc1ccc([N+](=O)[O-])cc1[N+](=O)[O-])c1cc(C(F)(F)F)cc(C(F)(F)F)c1 [fragment 31] ? 1.3

Quick one: isoTOP-ABPP reactivity ratio at lysine Q15233_K467 for O=C(Oc1c(F)c(F)c(F)c(F)c1F)C1CCN(C(=O)OCc2ccccc2)CC1 [fragment 24] ? 1.0

====

TEST_SYSTEM: ERO1L ERO1-like protein alpha (Homo sapiens, UniProt Q96HE7)
Construct: isoTOP-ABPP experiments performed in cell lysates (in vitro); endogenous in cells; host or cells: soluble proteome of human cancer cell lines (MDA-MB-231; Ramos and Jurkat also prepared)
Sequence (Q96HE7 24-468): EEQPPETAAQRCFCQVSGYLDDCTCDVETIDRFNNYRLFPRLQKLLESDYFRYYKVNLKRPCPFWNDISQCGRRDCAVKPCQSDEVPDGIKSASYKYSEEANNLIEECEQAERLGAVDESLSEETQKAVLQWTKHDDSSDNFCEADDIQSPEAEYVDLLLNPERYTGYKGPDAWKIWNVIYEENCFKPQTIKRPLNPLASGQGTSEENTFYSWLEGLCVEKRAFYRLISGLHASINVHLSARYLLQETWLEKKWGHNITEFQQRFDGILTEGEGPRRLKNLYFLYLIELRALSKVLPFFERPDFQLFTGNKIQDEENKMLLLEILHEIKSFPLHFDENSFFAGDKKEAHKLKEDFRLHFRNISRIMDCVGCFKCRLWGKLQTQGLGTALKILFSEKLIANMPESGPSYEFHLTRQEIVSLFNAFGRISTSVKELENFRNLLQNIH
ASSAY_METHOD_TEXT: competitive isoTOP-ABPP
Type: binding
CONDITIONS: 50 uM, in vitro, sol, 231
Consider the following compounds; for each one, report its isoTOP-ABPP ratio (R) at liganded lysine Q96HE7_K413.
Lab note: record the figure alone, no unit after it.

Quick one: isoTOP-ABPP ratio (R) at liganded lysine Q96HE7_K413 for "O=C(Oc1ccc([N+](=O)[O-])cc1[N+](=O)[O-])c1ccc2ccccc2n1" ? 2.2

Quick one: isoTOP-ABPP ratio (R) at liganded lysine Q96HE7_K413 for "CC(C)(C)OC(=O)NCCCC(=O)Oc1ccc([N+](=O)[O-])cc1[N+](=O)[O-]" ? 1.7

Quick one: isoTOP-ABPP ratio (R) at liganded lysine Q96HE7_K413 for "O=C(Oc1ccc([N+](=O)[O-])cc1[N+](=O)[O-])c1ccc(-c2ccccc2)cc1" ? 2.4

Quick one: isoTOP-ABPP ratio (R) at liganded lysine Q96HE7_K413 for CC(=O)Oc1ccc([N+](=O)[O-])cc1[N+](=O)[O-] [fragment 43, 2,4-Dinitrophenyl acetate] ? 2.0

====

TEST_SYSTEM: NPEPPS Puromycin-sensitive aminopeptidase (Homo sapiens, UniProt P55786)
Construct: isoTOP-ABPP experiments performed in cell lysates (in vitro); endogenous in cells; host or cells: soluble proteome of human cancer cell lines (MDA-MB-231, Ramos, Jurkat)
Sequence (P55786 whole entry): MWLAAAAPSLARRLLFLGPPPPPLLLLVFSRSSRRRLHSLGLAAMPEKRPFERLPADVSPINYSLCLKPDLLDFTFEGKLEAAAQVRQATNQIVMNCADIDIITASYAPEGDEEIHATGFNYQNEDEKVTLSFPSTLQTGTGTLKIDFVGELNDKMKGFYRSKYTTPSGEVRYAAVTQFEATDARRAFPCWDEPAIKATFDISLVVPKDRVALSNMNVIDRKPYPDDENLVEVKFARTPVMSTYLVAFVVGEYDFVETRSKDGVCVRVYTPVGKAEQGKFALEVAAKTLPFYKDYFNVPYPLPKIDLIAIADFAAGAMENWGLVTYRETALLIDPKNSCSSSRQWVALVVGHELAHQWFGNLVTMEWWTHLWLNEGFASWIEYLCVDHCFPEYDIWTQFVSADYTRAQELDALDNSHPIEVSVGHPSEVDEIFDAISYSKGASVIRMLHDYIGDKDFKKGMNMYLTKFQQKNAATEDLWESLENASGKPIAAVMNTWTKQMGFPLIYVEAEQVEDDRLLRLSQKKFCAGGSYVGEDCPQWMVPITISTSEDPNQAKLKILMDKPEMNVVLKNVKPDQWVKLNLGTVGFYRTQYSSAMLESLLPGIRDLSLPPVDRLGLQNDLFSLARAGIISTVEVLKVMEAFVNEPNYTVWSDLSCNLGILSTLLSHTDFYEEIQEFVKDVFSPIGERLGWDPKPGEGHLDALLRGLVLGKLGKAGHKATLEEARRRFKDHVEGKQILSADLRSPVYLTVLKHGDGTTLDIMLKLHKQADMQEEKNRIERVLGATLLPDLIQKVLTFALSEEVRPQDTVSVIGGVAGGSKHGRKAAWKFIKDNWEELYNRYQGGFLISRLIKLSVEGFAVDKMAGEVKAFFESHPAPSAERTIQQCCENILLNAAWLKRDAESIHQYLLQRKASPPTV
ASSAY_METHOD_TEXT: competitive isoTOP-ABPP
Type: binding
CONDITIONS: 50 uM, 231 sol, in vitro
READOUT_KIND: isoTOP-ABPP reactivity ratio at lysine P55786_K712
Lab note: record the figure alone, no unit after it.

Quick one: isoTOP-ABPP reactivity ratio at lysine P55786_K712 for "O=C(Oc1ccc([N+](=O)[O-])cc1[N+](=O)[O-])c1cc(C(F)(F)F)cc(C(F)(F)F)c1" ? 1.1

Quick one: isoTOP-ABPP reactivity ratio at lysine P55786_K712 for "O=C(CCc1coc2cc(F)ccc2c1=O)Oc1c(F)c(F)c(F)c(F)c1F" ? 1.2

Quick one: isoTOP-ABPP reactivity ratio at lysine P55786_K712 for "COc1cc(CCC(=O)Oc2ccc([N+](=O)[O-])cc2[N+](=O)[O-])cc(OC)c1OC" ? 1.2

Quick one: isoTOP-ABPP reactivity ratio at lysine P55786_K712 for "Cn1cc(CC(=O)Oc2ccc([N+](=O)[O-])cc2[N+](=O)[O-])c2ccccc21" ? 1.4

Quick one: isoTOP-ABPP reactivity ratio at lysine P55786_K712 for "O=C(Oc1c(F)c(F)c(F)c(F)c1F)C1CCN(C(=O)OCc2ccccc2)CC1" ? 1.0

Quick one: isoTOP-ABPP reactivity ratio at lysine P55786_K712 for "O=C(CCc1cn(-c2ccccc2)nc1-c1ccccc1)Oc1ccc([N+](=O)[O-])cc1[N+](=O)[O-]" ? 1.1

Quick one: isoTOP-ABPP reactivity ratio at lysine P55786_K712 for "CCn1cc(C(=O)Oc2c(F)c(F)c(F)c(F)c2F)c(=O)c2ccc(C)nc21" ? 1.0

Quick one: isoTOP-ABPP reactivity ratio at lysine P55786_K712 for O=C(Oc1ccc([N+](=O)[O-])cc1[N+](=O)[O-])C(c1ccccc1)c1ccccc1 [fragment 30, 2,4-Dinitrophenyl 2,2-diphenylacetate] ? 1.5

Quick one: isoTOP-ABPP reactivity ratio at lysine P55786_K712 for "O=C(Oc1c(F)c(F)c(F)c(F)c1F)c1ccc2ccccc2n1" ? 1.1

Quick one: isoTOP-ABPP reactivity ratio at lysine P55786_K712 for "O=C(CN1C(=O)c2ccccc2C1=O)Oc1c(F)c(F)c(F)c(F)c1F" ? 1.2

====

TEST_SYSTEM: ECH1 Delta(3,5)-Delta(2,4)-dienoyl-CoA isomerase, mitochondrial (Homo sapiens, UniProt Q13011)
Construct: isoTOP-ABPP experiments performed in cell lysates (in vitro); endogenous in cells; host or cells: soluble proteome of human cancer cell lines (MDA-MB-231, Ramos, Jurkat)
Sequence (Q13011 34-328): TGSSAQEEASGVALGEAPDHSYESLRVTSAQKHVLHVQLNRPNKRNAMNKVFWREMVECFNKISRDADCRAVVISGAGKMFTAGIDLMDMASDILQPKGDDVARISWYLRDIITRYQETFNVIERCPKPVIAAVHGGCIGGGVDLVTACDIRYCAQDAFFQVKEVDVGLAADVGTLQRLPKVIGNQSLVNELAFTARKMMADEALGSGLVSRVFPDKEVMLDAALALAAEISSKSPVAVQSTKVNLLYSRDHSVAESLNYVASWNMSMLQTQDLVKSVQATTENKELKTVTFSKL
ASSAY_METHOD_TEXT: competitive isoTOP-ABPP
Type: binding
CONDITIONS: Q13011_K112; 50 uM, 231 sol, in vitro
READOUT_KIND: R value (DMSO/fragment) for probe 1 labeling
Lab note: record the figure alone, no unit after it.

Quick one: R value (DMSO/fragment) for probe 1 labeling for "COc1cc(CCC(=O)Oc2c(F)c(F)c(F)c(F)c2F)cc(OC)c1OC" ? 4.7

Quick one: R value (DMSO/fragment) for probe 1 labeling for "O=C(CCc1cn(-c2ccccc2)nc1-c1ccccc1)Oc1c(F)c(F)c(F)c(F)c1F" ? 4.7

Quick one: R value (DMSO/fragment) for probe 1 labeling for O=C(Oc1c(F)c(F)c(F)c(F)c1F)C(c1ccccc1)c1ccccc1 [fragment 20, Pentafluorophenyl 2,2-diphenylacetate] ? 1.4

Quick one: R value (DMSO/fragment) for probe 1 labeling for "O=C(Oc1c(F)c(F)c(F)c(F)c1F)c1cc(C(F)(F)F)cc(C(F)(F)F)c1" ? 1.5

Quick one: R value (DMSO/fragment) for probe 1 labeling for "Cn1cc(CC(=O)Oc2c(F)c(F)c(F)c(F)c2F)c2ccccc21" ? 1.5

====

Consider the following compounds; for each one, report its R value (DMSO/fragment) for probe 1 labeling.
TEST_SYSTEM: KIAA1967 DBIRD complex subunit KIAA1967 (Homo sapiens, UniProt Q8N163)
Construct: isoTOP-ABPP experiments performed in cell lysates (in vitro); endogenous in cells; host or cells: soluble proteome of human cancer cell lines (MDA-MB-231; Ramos and Jurkat also prepared)
Sequence (Q8N163 whole entry, one chain of several): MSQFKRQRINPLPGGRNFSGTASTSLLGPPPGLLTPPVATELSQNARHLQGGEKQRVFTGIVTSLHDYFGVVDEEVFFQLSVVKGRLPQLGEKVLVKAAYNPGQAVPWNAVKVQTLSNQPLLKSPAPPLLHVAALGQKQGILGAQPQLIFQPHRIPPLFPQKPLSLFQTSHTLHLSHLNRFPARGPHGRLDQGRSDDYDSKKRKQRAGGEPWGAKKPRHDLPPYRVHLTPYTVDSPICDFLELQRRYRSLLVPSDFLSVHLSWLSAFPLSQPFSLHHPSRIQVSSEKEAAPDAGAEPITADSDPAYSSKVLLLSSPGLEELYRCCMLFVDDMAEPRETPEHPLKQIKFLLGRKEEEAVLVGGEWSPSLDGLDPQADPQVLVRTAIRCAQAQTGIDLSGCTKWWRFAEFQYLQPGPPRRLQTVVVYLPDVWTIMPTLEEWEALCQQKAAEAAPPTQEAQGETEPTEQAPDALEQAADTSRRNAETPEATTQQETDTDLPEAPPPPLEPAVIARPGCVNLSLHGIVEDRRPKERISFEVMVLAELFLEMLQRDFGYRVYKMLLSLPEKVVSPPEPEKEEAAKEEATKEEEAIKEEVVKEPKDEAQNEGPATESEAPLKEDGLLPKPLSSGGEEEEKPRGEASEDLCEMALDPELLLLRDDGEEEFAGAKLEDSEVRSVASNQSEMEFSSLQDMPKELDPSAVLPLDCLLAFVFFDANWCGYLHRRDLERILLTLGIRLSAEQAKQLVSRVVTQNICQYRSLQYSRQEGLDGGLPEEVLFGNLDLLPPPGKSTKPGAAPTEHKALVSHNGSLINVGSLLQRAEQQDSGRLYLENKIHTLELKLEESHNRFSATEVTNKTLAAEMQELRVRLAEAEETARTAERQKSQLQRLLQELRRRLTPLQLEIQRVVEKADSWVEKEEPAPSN
ASSAY_METHOD_TEXT: competitive isoTOP-ABPP
Format: binding
CONDITIONS: Q8N163_K97; 50 uM, 231 sol, in vitro
Lab note: record the figure alone, no unit after it.

Quick one: R value (DMSO/fragment) for probe 1 labeling for O=C(Oc1c(F)c(F)c(F)c(F)c1F)c1cc(C(F)(F)F)cc(C(F)(F)F)c1 [fragment 21] ? 0.7

Quick one: R value (DMSO/fragment) for probe 1 labeling for O=C(Oc1c(F)c(F)c(F)c(F)c1F)C(c1ccccc1)c1ccccc1 [fragment 20, Pentafluorophenyl 2,2-diphenylacetate] ? 0.9

Quick one: R value (DMSO/fragment) for probe 1 labeling for COc1cc(CCC(=O)Oc2c(F)c(F)c(F)c(F)c2F)cc(OC)c1OC [fragment 23] ? 0.8

Quick one: R value (DMSO/fragment) for probe 1 labeling for O=C(CCc1cn(-c2ccccc2)nc1-c1ccccc1)Oc1c(F)c(F)c(F)c(F)c1F [fragment 19] ? 0.9

Quick one: R value (DMSO/fragment) for probe 1 labeling for Cn1cc(CC(=O)Oc2c(F)c(F)c(F)c(F)c2F)c2ccccc21 [fragment 22] ? 1.0
